biological target: 5-HT7 (Homo sapiens (Human), UniProt P34969); assay: radioligand competition binding assay (Psychiatric Drug Screening Program)
Sequence (P34969 whole entry, looked up, species assumed): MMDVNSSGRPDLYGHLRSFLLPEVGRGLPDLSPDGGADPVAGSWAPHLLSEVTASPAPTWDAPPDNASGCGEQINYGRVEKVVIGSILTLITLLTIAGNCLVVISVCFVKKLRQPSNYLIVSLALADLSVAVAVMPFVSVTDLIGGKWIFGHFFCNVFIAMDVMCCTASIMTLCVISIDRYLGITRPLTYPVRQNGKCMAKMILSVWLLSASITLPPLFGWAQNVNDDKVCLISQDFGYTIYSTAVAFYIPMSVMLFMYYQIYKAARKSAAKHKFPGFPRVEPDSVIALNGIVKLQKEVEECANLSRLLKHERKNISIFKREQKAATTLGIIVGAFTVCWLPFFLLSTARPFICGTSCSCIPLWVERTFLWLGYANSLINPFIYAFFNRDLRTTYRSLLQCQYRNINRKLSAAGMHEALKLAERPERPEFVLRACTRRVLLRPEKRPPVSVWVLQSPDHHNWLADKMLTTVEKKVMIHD
experimental.endpoint: Ki (nM)

1. CN(C)CCc1c[nH]c2cccc(O)c12 : 72
2. COc1cc(C(F)(F)F)c(OC)cc1[C@@H]1CCCNC1.Cl [Compound 8, hydrochloride] : 2360

* * *

biological target: UniProt P28221; assay: radioligand competition binding assay (Psychiatric Drug Screening Program)
Sequence (P28221 whole entry, looked up, species assumed): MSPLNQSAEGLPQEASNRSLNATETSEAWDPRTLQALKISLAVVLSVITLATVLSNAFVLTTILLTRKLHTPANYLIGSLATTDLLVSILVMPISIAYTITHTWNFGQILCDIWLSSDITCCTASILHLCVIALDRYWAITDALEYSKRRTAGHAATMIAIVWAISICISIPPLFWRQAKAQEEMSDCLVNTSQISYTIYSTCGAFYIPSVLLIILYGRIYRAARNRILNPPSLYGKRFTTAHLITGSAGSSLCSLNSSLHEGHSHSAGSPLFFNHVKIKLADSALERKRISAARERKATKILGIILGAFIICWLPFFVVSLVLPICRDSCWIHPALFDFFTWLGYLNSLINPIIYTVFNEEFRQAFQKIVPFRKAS
experimental.endpoint: Ki (nM)

1) CN(C)CCc1c[nH]c2cccc(O)c12 : 19

* * *

target: 5-HT5A (Homo sapiens (Human), UniProt P47898); assay: radioligand competition binding assay (Psychiatric Drug Screening Program)
Sequence (P47898 whole entry, looked up, species assumed): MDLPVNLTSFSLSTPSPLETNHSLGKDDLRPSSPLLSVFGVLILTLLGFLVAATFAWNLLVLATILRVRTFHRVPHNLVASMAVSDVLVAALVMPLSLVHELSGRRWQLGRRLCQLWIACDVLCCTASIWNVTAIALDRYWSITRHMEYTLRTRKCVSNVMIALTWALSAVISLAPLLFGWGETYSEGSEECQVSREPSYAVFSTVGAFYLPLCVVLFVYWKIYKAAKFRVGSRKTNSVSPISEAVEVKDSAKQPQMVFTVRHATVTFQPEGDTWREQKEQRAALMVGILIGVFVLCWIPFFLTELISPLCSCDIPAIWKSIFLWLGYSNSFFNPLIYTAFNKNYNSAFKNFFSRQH
experimental.endpoint: Ki (nM)

1. CN(C)CCc1c[nH]c2cccc(O)c12 : 70

* * *

molecular target: human 5-HT2A (Homo sapiens (Human), UniProt P28223); assay: cell-based; type: cell-based; details: % of the Rmax of 5-HT
Structures can show the parent of a compound that is named as a salt.
experimental.endpoint: 5-HT2A Rmax ± S.E.M (%)

1. COc1cc(C(F)(F)F)c(OC)cc1[C@@H]1CCCN(C)C1 : 19
2. CCOc1cc([C@H]2CCCNC2)c(OC)cc1C(F)(F)F.Cl : 86
3. CCOc1cc(C(F)(F)F)c(OCC)cc1[C@@H]1CCCNC1.Cl : 47
4. COc1cc(C(F)(F)F)c(OC)cc1[C@@H]1CCCNC1.Cl : 47
5. COc1cc(C(F)(F)F)c(OC)cc1[C@H]1CCNC1 : 45
6. COc1cc(C(F)(F)F)c(F)cc1[C@H]1CCCNC1.Cl : 78
7. COc1cc([C@@H]2CCCNC2)ccc1C(F)(F)F.Cl : 65
8. CCc1cc(OC)c([C@@H]2CCCNC2)cc1OC.Cl : 79
9. CCOc1cc(CC)c(OC)cc1[C@H]1CCCNC1 : 80
10. CCOc1cc(C(F)(F)F)c(OC)cc1[C@H]1CCCNC1.Cl : 77
11. CCSc1cc([C@@H]2CCCNC2)c(OC)cc1C(F)(F)F.Cl : 96
12. COc1cc([C@H]2CCCNC2)c(OC2CC2)cc1C(F)(F)F [Compound 54, hydrochloride] : 76
13. CCOc1cc(C(F)(F)F)c(OC)cc1[C@@H]1CCCNC1.Cl : 40
14. COc1cc(C2CNC2)c(OC)cc1Br.Cl : 97
15. COc1cc(C(F)(F)F)c(OC)cc1[C@H]1CCCN(C)C1 : 53
16. CCOc1cc([C@H]2CCCNC2)c(OC)cc1CC.Cl : 89
17. CCOc1cc([C@@H]2CCCNC2)c(OC)cc1CC.Cl : 88
18. CCOc1cc([C@@H]2CCCNC2)c(OC)cc1C(F)(F)F.Cl : 95
19. COc1cc(C(F)(F)F)c(OC)cc1[C@@H]1CNC[C@@H](C)C1.Cl (relative stereo) : 68
20. COc1cc([C@@H]2CCCNC2)c(OCF)cc1C(F)(F)F : 40
21. CCOc1cc(C(F)(F)F)c(OCC)cc1[C@H]1CCCNC1.Cl : 69
22. COc1cc(C(F)(F)F)c(OC)cc1C1CCCNC1C.Cl (stereo not shown) : 75
23. COc1cc([C@H]2CCNC2)c(OC)cc1Br : 57
24. CCSc1cc([C@H]2CCCNC2)c(OC)cc1C(F)(F)F.Cl : 97
25. CCN1CCC[C@@H](c2cc(OC)c(C(F)(F)F)cc2OC)C1 : 44
26. COc1cc(C(F)(F)F)c(SC)cc1[C@H]1CCCNC1.Cl : 96
27. CCOc1cc(CC)c(OC)cc1[C@@H]1CCCNC1 : 42
28. COc1cc([C@H]2CCCNC2)ccc1C(F)(F)F.Cl : 68
29. COc1cc(C2CC[C@@H](c3ccccc3OC)NC2)c(OC)cc1Br (stereo partly shown) [Compound 8a, reference compound] : 87
30. COc1cc([C@@H]2CCCNC2)c(OC2CC2)cc1C(F)(F)F [Compound 55, hydrochloride] : 30
31. COc1cc(C(F)(F)F)ccc1[C@@H]1CCCNC1 [Compound 53, hydrochloride] : 68
32. COc1cc(C(F)(F)F)c(OC)cc1C1CNC1.Cl : 95
33. COc1cc(C(F)(F)F)ccc1[C@H]1CCCNC1 [Compound 52, hydrochloride] : 77
34. COc1cc(C(F)(F)F)c(F)cc1[C@@H]1CCCNC1.Cl : 79
35. COc1cc(C(F)(F)F)c(OC)cc1[C@@H]1CCNC1 : 35
36. Br.COc1cc([C@@H]2CCNC2)c(OC)cc1Br : 39

* * *

molecular target: 5-HT2B (Homo sapiens (Human), UniProt P41595); test: IP assay (Eurofins, IP1 HTRF), HEK293 cells; type: cell-based; conditions: % of Rmax of 5-HT;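 also: agonist effect read as cellular IP1 production by HTRF using a europium cryptate anti-IP1 antibody donor and D2-labeled IP1 acceptor, eight compound concentrations in each cell line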
Sequence (P41595 whole entry, looked up): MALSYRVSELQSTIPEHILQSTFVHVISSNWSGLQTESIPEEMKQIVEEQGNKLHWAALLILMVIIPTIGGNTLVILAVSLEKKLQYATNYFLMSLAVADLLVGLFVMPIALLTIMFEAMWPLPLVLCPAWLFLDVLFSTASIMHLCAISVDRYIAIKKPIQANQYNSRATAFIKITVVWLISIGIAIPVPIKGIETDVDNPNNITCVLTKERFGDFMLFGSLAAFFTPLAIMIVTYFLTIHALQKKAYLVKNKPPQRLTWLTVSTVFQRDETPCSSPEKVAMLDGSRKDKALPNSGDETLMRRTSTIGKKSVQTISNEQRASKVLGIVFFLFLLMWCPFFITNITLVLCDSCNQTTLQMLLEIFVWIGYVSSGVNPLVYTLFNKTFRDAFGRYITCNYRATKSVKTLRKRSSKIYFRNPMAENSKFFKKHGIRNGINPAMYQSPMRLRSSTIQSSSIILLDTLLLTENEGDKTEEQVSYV
Reported 5-HT2B Rmax values for the following compounds.
experimental.endpoint: 5-HT2B Rmax (%)

1. COc1cc([C@@H]2CCCNC2)c(OC)cc1C.Cl [Compound 24] : 38
2. COc1cc(CC(C)N)c(OC)cc1I (stereo not shown) [DOI, 2,5-Dimethoxy-4-iodoamphetamine, reference compound] : 79
3. CCOc1cc([C@@H]2CCCNC2)c(OC)cc1CC.Cl [Compound 34] : 50
4. CCSc1cc(OC)c([C@@H]2CCCNC2)cc1OC.Cl [Compound 28] : 55
5. COc1cc(C(F)(F)F)c(OC)cc1C1CCCNC1C.Cl (stereo not shown) [Compound 35] : 28
6. COc1cc([C@@H]2CCCNC2)c(OC)cc1Br [Compound 12] : 48
7. COc1cc([C@@H]2CCCNC2)c(OC)cc1Cl [Compound 10] : 50
8. COc1cc([C@@H]2CCCNC2)c(OC)cc1SC.Cl [Compound 18] : 64
9. CCOc1cc(CC)c(OC)cc1[C@@H]1CCCNC1 [Compound 43] : 11
10. COc1cc([C@@H]2CCCNC2)c(OCF)cc1C(F)(F)F [Compound 39] : 54

* * *

biological target: a2A (Homo sapiens (Human), UniProt P08913); assay: radioligand competition binding assay (Psychiatric Drug Screening Program)
Sequence (P08913 whole entry, looked up): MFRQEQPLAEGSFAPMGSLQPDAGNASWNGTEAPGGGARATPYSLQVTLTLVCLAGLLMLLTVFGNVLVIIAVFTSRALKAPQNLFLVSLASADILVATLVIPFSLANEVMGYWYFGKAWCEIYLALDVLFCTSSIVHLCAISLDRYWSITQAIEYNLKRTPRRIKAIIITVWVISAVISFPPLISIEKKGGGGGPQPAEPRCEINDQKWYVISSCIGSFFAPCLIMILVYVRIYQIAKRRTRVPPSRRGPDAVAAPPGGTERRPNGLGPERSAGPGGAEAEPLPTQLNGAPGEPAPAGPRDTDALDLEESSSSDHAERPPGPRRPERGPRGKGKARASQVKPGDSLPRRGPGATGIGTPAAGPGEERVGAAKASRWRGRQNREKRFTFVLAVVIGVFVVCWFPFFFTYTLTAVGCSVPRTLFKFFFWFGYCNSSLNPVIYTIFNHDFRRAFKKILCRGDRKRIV
pKi: −log10 of the molar value.
experimental.endpoint: pKi

1. CN(C)CCc1c[nH]c2cccc(O)c12 : 5.70

* * *

biological target: human 5-HT2A (Homo sapiens (Human), UniProt P28223); experiment: cell-based; type: cell-based; conditions: Ca2+/Fluo-4 assay; bounds are conservative estimates
Where a name gives a salt, the structure may show the parent alone. Marks after values point to notes of the source that are not given here.
Selectivity EC50 5-HT2C/EC50 5-HT2A values, listed per item
experimental.endpoint: Selectivity EC50 5-HT2C/EC50 5-HT2A

1. COc1cc([C@@H]2CCCNC2)c(OCF)cc1C(F)(F)F [Compound 39] : >300^e
2. COc1cc(C(F)(F)F)c(OC)cc1[C@@H]1CCNC1 [Compound 6] : 3.5
3. COc1cc(C(F)(F)F)c(SC)cc1[C@H]1CCCNC1.Cl [Compound 44] : 9.3
4. COc1cc([C@@H]2CCCNC2)ccc1C(F)(F)F.Cl [Compound 49] : 0.51
5. COc1cc(C2CC[C@@H](c3ccccc3OC)NC2)c(OC)cc1Br (stereo partly drawn) [Compound 8a, reference compound] : 4.1
6. COc1cc(C(F)(F)F)c(F)cc1[C@H]1CCCNC1.Cl [Compound 50] : 2.8
7. COc1cc([C@@H]2CCCNC2)c(OC2CC2)cc1C(F)(F)F [Compound 55, hydrochloride] : >50^e
8. COc1cc(C(F)(F)F)c(OC)cc1C1CNC1.Cl [Compound 2] : 5.2
9. COc1cc(C(F)(F)F)c(F)cc1[C@@H]1CCCNC1.Cl [Compound 51] : >100^e

* * *

target: 5-HT2C (Homo sapiens (Human), UniProt P28335); experiment: Ca2+/Fluo-4 assay, stable h5-HT2C-HEK293 cell line; format: cell-based; conditions: agonist potency, n = 3-4; read-out: 5-HT2C EC50;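 also: Agonist-induced intracellular Ca2+ rise read by Fluo-4 fluorescence in HEK293 cells stably expressing the human 5-HT2C receptor, each compound run in duplicate on three or more occasions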
Sequence (P28335 whole entry, looked up): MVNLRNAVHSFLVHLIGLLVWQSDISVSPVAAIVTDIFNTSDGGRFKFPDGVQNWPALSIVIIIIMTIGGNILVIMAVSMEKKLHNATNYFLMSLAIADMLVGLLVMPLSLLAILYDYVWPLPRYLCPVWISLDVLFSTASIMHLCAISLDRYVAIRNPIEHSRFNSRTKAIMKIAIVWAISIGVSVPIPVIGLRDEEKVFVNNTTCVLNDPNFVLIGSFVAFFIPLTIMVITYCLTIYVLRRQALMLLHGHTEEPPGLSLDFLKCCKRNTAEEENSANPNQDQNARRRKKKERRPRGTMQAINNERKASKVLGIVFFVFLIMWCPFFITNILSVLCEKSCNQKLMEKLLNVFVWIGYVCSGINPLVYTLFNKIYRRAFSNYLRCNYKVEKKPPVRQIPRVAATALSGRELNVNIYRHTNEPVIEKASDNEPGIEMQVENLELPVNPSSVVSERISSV
Structures can show the parent of a compound that is named as a salt.
experimental.endpoint: log10 of EC50 (log10 of the value in nM)

1) COc1cc([C@H]2CCCNC2)c(OC)cc1SC [Compound 17, hydrochloride] : 3.36
2) CCCCc1cc(OC)c([C@H]2CCCNC2)cc1OC [Compound 56, hydrochloride] : 3.20
3) COc1cc(C2CNC2)c(OC)cc1Br.Cl [Compound 1, hydrochloride] : 0.76
4) COc1cc([C@H]2CCCNC2)c(OC)cc1Br [Compound 11] : 3.28
5) COc1cc([C@H]2CCCNC2)c(OC)cc1C [Compound 23, hydrochloride] : 3.08
6) CCOc1cc([C@@H]2CCCNC2)c(OC)cc1C(F)(F)F.Cl [Compound 20, hydrochloride] : 2.46
7) COc1cc(C(F)(F)F)c(OC)cc1[C@@H]1CNC[C@@H](C)C1.Cl (relative stereo) [Compound 36, hydrochloride] : 2.60
